The following compounds are listed with their measured Ki values.
- target-or-test-system: Bcl-XL protein (Homo sapiens)
- Sequence (Q07817 with tags, fused parts or gaps DEL45-84): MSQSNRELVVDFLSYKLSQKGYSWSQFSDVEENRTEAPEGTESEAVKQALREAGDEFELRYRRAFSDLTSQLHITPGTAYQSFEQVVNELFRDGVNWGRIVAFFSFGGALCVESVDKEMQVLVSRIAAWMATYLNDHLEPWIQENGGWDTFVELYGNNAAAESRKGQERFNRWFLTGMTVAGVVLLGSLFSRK

{"compound": "CC1(C)CCC(CN2CCN(c3ccc(C(=O)NS(=O)(=O)c4ccc(N[C@H](CCN5C[C@@H]6C[C@H]5CO6)CSc5ccccc5)c(S(=O)(=O)C(F)(F)Cl)c4)cc3)CC2)=C(c2ccc(Cl)cc2)C1 [Example 25]", "Ki": "≤ 1 nM"}
{"compound": "CN(C)CC[C@H](CSc1ccccc1)Nc1ccc(S(=O)(=O)NC(=O)c2ccc(N3CCN(CC4=C(c5ccc(Cl)cc5)CCCC4)CC3)cc2)cc1S(=O)(=O)C(F)(F)Cl [Example 18]", "Ki": "≤ 1 nM"}
{"compound": "O=C(NS(=O)(=O)c1ccc(N[C@H](CCN2C3CCC2CC3)CSc2ccccc2)c(S(=O)(=O)C(F)(F)F)c1)c1ccc(N2CCN(CC3=C(c4ccc(Cl)cc4)CCCC3)CC2)cc1 [Example 8]", "Ki": "≤ 1 nM"}
{"compound": "O=C(NS(=O)(=O)c1ccc(N[C@H](CCN2CCCC2)CSc2ccccc2)c(S(=O)(=O)C(F)(F)F)c1)c1ccc(N2CCN(CC3=C(c4ccc(Cl)cc4)CCCCC3)CC2)cc1 [Example 29]", "Ki": "≤ 1 nM"}
{"compound": "CC1(C)CCC(CN2CCN(c3ccc(C(=O)NS(=O)(=O)c4ccc(N[C@H](CCN5C[C@@H]6C[C@H]5CO6)CSc5ccccc5)c(S(=O)(=O)C(F)(F)F)c4)cc3)CC2)=C(c2ccc(Cl)cc2)C1 [Example 36]", "Ki": "≤ 1 nM"}
{"compound": "CC(C)N(C)CC[C@H](CSc1ccccc1)Nc1ccc(S(=O)(=O)NC(=O)c2ccc(N3CCN(CC4=C(c5ccc(Cl)cc5)CCC(C)(C)C4)CC3)cc2)cc1S(=O)(=O)C(F)(F)Cl [Example 23]", "Ki": "≤ 1 nM"}
{"compound": "CN(C)CC[C@H](CSc1ccccc1)Nc1ccc(S(=O)(=O)NC(=O)c2ccc(N3CCN(CC4=C(c5ccc(Cl)cc5)CCCC4)CC3)cc2)cc1S(=O)(=O)C(F)(F)F [Example 26]", "Ki": "≤ 1 nM"}
{"compound": "CC1(C)CCC(c2ccc(Cl)cc2)=C(CN2CCN(c3ccc(C(=O)NS(=O)(=O)c4ccc(N[C@H](CCN5CCOCC5)CSc5ccccc5)c(S(=O)(=O)C(F)(F)Cl)c4)cc3)CC2)C1 [Example 19]", "Ki": "≤ 1 nM"}
{"compound": "CC1(C)CCC(c2ccc(Cl)cc2)=C(CN2CCN(c3ccc(C(=O)NS(=O)(=O)c4ccc(N[C@H](CCN5CC6CC5CO6)CSc5ccccc5)c(S(=O)(=O)C(F)(F)Cl)c4)cc3)CC2)C1 (stereo partly shown) [Example 11]", "Ki": "≤ 3 nM"}
{"compound": "CC1(C)CCC(c2ccc(Cl)cc2)=C(CN2CCN(c3ccc(C(=O)NS(=O)(=O)c4ccc(N[C@H](CCN5CCCC5)CSc5ccccc5)c(S(=O)(=O)C(F)(F)Cl)c4)cc3)CC2)C1 [Example 30]", "Ki": "≤ 1 nM"}
